- TARGET OR TEST SYSTEM: GLUT1 (Homo sapiens, UniProt P11166)
- Sequence (P11166 1-492): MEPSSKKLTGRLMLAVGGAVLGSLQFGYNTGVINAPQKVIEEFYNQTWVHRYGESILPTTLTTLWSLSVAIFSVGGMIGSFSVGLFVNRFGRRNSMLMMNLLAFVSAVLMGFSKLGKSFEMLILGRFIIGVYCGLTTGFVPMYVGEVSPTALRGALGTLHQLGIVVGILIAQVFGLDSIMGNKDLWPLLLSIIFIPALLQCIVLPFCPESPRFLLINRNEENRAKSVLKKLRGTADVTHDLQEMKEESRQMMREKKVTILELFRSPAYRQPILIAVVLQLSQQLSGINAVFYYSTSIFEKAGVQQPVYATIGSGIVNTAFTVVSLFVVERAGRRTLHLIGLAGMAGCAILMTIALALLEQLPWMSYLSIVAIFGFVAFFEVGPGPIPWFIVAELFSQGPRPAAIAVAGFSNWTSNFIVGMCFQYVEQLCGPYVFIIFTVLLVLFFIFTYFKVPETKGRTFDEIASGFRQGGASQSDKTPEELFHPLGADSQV
- TEST NAME: Indirect measurement of GLUT1 activity by quantification of intracellular ATP levels (glucose induced ATP increase)
- Assay type: cell-based
- Set-up: endogenous in cells; host or cells: DLD1 or CHO-K1
- ASSAY CONDITIONS: read-out: IC50 regarding glucose induced ATP increase (GLUT1 inhibition)
MEASURE: IC50 (µM)
Give your result in µM as a bare value.

[in] Can you share its IC50? I mean this compound: Cc1nn(CCOc2ccc(C#N)cc2)c(C)c1NC(=O)c1cc(C(F)(F)F)nc2ccc(Br)cc12 [Example 1344]
[out] 0.323

[in] Now give it for Cc1nn(Cc2ccc(F)cc2)c(C(=O)NCCO)c1NC(=O)c1cc(C(F)(F)F)nc2ccc(Br)cc12 [Example 1219] too.
[out] 0.708

[in] Now give it for Cc1c(NC(=O)c2cc(C(N)=O)nc3ccccc23)c(C(F)(F)F)nn1Cc1ccc(C(C)(C)C)cc1 [Example 1370] too.
[out] 1.09

[in] Now give it for Cc1c(NC(=O)c2cc(C(N)=O)nc3cc(F)c(Cl)cc23)c(C(F)(F)F)nn1Cc1c(F)cccc1F [Example 1630] too.
[out] 0.004

[in] Now give it for COc1ccc(Cn2nc(C)c(NC(=O)c3cc(C(F)(F)F)nc4ccc(Br)cc34)c2C)cc1F [Example 1039] too.
[out] 0.0057

[in] Now give it for Cc1nn(Cc2ccc(C(=O)NCc3nccs3)cc2)c(C)c1NC(=O)c1cc(C(F)(F)F)nc2ccc(Br)cc12 [Example 1130] too.
[out] 0.0866

[in] Now give it for Cc1c(NC(=O)c2cc(C(N)=O)nc3cc(F)ccc23)c(C(F)(F)F)nn1Cc1cccc(C#N)n1 [Example 1687] too.
[out] 0.128

---

- TARGET OR TEST SYSTEM: GLUT1 (Homo sapiens)
- Sequence (P11166 1-492): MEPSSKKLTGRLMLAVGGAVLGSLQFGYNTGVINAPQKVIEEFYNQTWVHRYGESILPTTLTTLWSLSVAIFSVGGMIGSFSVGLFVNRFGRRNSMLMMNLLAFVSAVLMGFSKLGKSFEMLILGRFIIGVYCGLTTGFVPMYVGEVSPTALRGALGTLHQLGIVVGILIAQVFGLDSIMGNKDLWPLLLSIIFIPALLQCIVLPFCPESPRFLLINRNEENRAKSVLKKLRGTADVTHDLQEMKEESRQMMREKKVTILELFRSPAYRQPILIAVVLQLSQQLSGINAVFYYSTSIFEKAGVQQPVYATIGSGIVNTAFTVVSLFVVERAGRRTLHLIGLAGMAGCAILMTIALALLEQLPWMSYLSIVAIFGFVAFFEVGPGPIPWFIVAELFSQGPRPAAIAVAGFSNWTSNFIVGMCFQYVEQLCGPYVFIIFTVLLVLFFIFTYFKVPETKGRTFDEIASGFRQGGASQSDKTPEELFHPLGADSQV
- TEST NAME: Indirect measurement of GLUT1 activity by quantification of intracellular ATP levels (glucose induced ATP increase)
- Format: cell-based
- Design: endogenous in cells; host or cells: DLD1 or CHO-K1
- ASSAY CONDITIONS: read-out: IC50 regarding glucose induced ATP increase (GLUT1 inhibition)
Exercise: state measured log10(IC50) for each of the molecules provided.
# values: log10(IC50), units nM

[in] Can you share its log10(IC50)? I mean this molecule: Cc1cc(Cn2nc(C)c(NC(=O)c3cc(C(N)=O)nc4cc(F)ccc34)c2C)ccc1C#N
[out] 0.08

[in] Now give it for Cc1nn(Cc2cccnc2)c(C)c1NC(=O)c1cc(C(F)(F)F)nc2cc(F)c(F)cc12 too.
[out] 2.46

[in] Now give it for Cc1nn(Cc2ccc(CC(N)=O)cc2)c(C)c1NC(=O)c1cc(C(F)(F)F)nc2ccc(Br)cc12 too.
[out] 1.77

[in] Now give it for Cc1c(NC(=O)c2cc(C(N)=O)nc3cc(F)ccc23)c(C(F)(F)F)nn1Cc1ccc(C#N)cn1 too.
[out] 0.30

[in] Now give it for Cc1c(NC(=O)c2cc(C(N)=O)nc3cccc(F)c23)c(C(F)(F)F)nn1Cc1ccc(F)c(F)c1 too.
[out] 0.60

[in] Now give it for Cc1c(NC(=O)c2cc(C(=O)NS(C)(=O)=O)nc3ccccc23)c(C(F)(F)F)nn1Cc1ccc(C#N)cc1 too.
[out] 3.40

[in] Now give it for Cc1nn(Cc2ccccc2C#N)c(C)c1NC(=O)c1cc(C(F)(F)F)nc2cc(F)c(F)cc12 too.
[out] 1.85
